- tested target: Sigma non-opioid intracellular receptor 1 (Cavia porcellus, UniProt Q60492)
- Sequence (Q60492 whole entry): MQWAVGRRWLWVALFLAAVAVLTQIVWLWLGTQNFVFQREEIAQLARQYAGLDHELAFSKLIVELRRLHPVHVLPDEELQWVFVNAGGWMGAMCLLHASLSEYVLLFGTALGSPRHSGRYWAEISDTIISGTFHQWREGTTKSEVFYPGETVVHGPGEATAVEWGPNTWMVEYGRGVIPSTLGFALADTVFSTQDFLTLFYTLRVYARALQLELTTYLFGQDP
- assay comment: Displacement of [3H]-pentazocine from guinea pig sigma1 receptor by liquid scintillation counting
The recorded Ki of each item maps onto one of these classes: low group: < 4 µM; middle group: ≥ 4 µM and < 7 µM; high group: ≥ 7 µM

[
  {
    "smiles structure": "O=C(NC/C=C/CN1CCN(c2ccccc2OCCF)CC1)c1ccc(-c2ccsc2)cc1",
    "tested target": "Sigma non-opioid intracellular receptor 1 (Cavia porcellus, UniProt Q60492)",
    "class label": "high group"
  },
  {
    "smiles structure": "O=C(NCCCCN1CCN(c2ccccc2OCCF)CC1)c1ccc(OCCF)cc1",
    "tested target": "Sigma non-opioid intracellular receptor 1 (Cavia porcellus, UniProt Q60492)",
    "class label": "middle group"
  },
  {
    "smiles structure": "COc1ccccc1N1CCN(CCCCNC(=O)c2ccc(N(C)C)cc2)CC1",
    "tested target": "Sigma non-opioid intracellular receptor 1 (Cavia porcellus, UniProt Q60492)",
    "class label": "low group"
  },
  {
    "smiles structure": "COc1ccccc1N1CCN(CCCCNC(=O)c2ccc(OCCF)cc2)CC1",
    "tested target": "Sigma non-opioid intracellular receptor 1 (Cavia porcellus, UniProt Q60492)",
    "class label": "middle group"
  },
  {
    "smiles structure": "CN(C)c1ccc(C(=O)NCCCCN2CCN(c3ccccc3OCCF)CC2)cc1",
    "tested target": "Sigma non-opioid intracellular receptor 1 (Cavia porcellus, UniProt Q60492)",
    "class label": "low group"
  }
]

Asked: Given COc1ccccc1N1CCN(CCCCNC(=O)c2ccc(CCF)cc2)CC1 , name the class its Ki places it in.
Given back: low group

Asked: Categorize the following entry: O=C(NCCCCN1CCN(c2ccccc2OCCF)CC1)c1ccc(-c2ccsc2)cc1
Given back: high group

Asked: GET /class?item= COc1ccccc1N1CCN(CCCCNC(=O)c2ccc(OCCOCCOCCF)cc2)CC1
Given back: middle group
